Origin of measurements: ChEMBL document CHEMBL6078653

- MEASUREMENT TARGET: Mu-type opioid receptor (Homo sapiens)
- Sequence (P35372 whole entry): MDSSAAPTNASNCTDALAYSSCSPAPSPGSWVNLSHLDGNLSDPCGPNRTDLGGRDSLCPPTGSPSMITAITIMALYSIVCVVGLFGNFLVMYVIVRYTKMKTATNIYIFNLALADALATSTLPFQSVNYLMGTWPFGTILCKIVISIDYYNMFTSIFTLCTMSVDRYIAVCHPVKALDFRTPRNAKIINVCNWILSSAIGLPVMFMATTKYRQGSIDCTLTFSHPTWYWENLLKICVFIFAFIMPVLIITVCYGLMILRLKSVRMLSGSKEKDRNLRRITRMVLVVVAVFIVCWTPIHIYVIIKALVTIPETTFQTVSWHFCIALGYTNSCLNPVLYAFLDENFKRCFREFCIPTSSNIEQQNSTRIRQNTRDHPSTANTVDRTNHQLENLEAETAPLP
- TEST NAME: Displacement of [3H]-Diprenorphine from human recombinant MOP receptor expressed in CHO-K1 cells incubated for 60 mins by radioligand binding assay
MEASUREMENT TYPE: pIC50
pIC50 is defined as minus the log10 of a concentration measured in mol/L.

{"MOLECULE": "CCCCCc1cc(O)c(C/C=C(\\C)CCC=C(C)C)c(O)c1 [CANNABIGEROL]", "EXPERIMENTAL VALUE": 5.86}
{"MOLECULE": "CCCCCc1cc2c(c(O)c1C(=O)O)C=CC(C)(CCC=C(C)C)O2 (centres undefined)", "EXPERIMENTAL VALUE": 4.97}

Answer with reported pIC50 of CCCCCc1cc(O)c2c(c1)OC(C)(C)c1ccc(C)cc1-2 [CANNABINOL]
5.49

Answer with reported pIC50 of C=C(C)[C@@H]1CCC(C)=C[C@H]1c1c(O)cc(CCC)cc1O [CANNABIDIVARIN]
5.19
